# targetOfAssay: Luciferin 4-monooxygenase (Photuris pensylvanica)
# protocol: Counterscreen for Luciferase (Kinase-Glo TM) Inhibition; note: nearly all actives have a fitted effect of over 60% in size; for activity change, negative = inhibition: % is set by controls: 0 for no effect and ±100 for the full control effect
# measurementConditions: ATP luminescence, 8 min; series mostly up to 38.3 µM
About 560 (0.28%) of roughly 200,000 compounds were called active. The entries come from a sample that favours actives as a whole.
experimentalReadout: activity change, negative = inhibition

[[record]]
compound = "C=C(C)C(=O)c1ccc(F)cc1"
experimentalreadout = "activity change, negative = inhibition"
measured = "inactive"

[[record]]
compound = "CCOC(=O)C1=NO[C@@]2(C=C(Br)C(=O)[C@H]3O[C@H]32)C1"
experimentalreadout = "activity change, negative = inhibition"
measured = "inactive"

[[record]]
compound = "CC(C)C[C@H](NC(=O)[C@H](O)[C@H](N)Cc1ccccc1)C(=O)O"
experimentalreadout = "activity change, negative = inhibition"
measured = "inactive"

[[record]]
compound = "COc1ccc2c(c1)O[C@@H](c1ccc3c(c1)OCO3)[C@H](OC(=O)NCCc1ccc(OC)c(OC)c1)C2=O"
experimentalreadout = "activity change, negative = inhibition"
measured = "inactive"

[[record]]
compound = "COC/C=C/C1=CC2=CC(=O)C(C)(OC(=O)CCC(=O)OC)C(=O)C2=CO1 (stereo not given)"
experimentalreadout = "activity change, negative = inhibition"
measured = "inactive"

[[record]]
compound = "COc1ccc(OC)c(N=Cc2c(O)[nH]c3ccccc23)c1"
experimentalreadout = "activity change, negative = inhibition"
measured = "inactive"

[[record]]
compound = "CCCCCCCC/C=C\\CCCCCCCC(=O)NCC(=O)O"
experimentalreadout = "activity change, negative = inhibition"
measured = "inactive"

[[record]]
compound = "C[C@H]1Cc2c(-c3ccccc3)nc3c(c2CO1)CN(S(=O)(=O)c1ccc(Cl)c2nonc12)CC3"
experimentalreadout = "activity change, negative = inhibition"
measured = "-6.5% [at 7.66 µM] (inactive)"

[[record]]
compound = "COC(=O)CCCC1=CC2=CC(=O)C(C)(OC(=O)c3cccs3)C(=O)C2=CN1c1cccc(C#N)c1 (stereo not given)"
experimentalreadout = "activity change, negative = inhibition"
measured = "0.0108% [at 7.66 µM] (inactive)"

[[record]]
compound = "CCOC(=O)C1=C(C)c2ccccc2OC1C(=O)OCC (stereo not given)"
experimentalreadout = "activity change, negative = inhibition"
measured = "inactive"


###

# targetOfAssay: Luciferin 4-monooxygenase (Photuris pensylvanica)
# protocol: Counterscreen for Luciferase (Kinase-Glo TM) Inhibition; note: nearly all actives have a fitted effect of over 60% in size; note: potency is the fitted concentration of half-maximal effect
# measurementConditions: ATP luminescence, 8 min; series mostly up to 38.3 µM
Out of some 200,000 compounds screened, about 560 (0.28%) were called active. The sample as a whole holds a higher share of actives than the screen did.
experimentalReadout: Potency

[[record]]
compoundstructure = "N/C(=N\\OC(=O)c1ccc([N+](=O)[O-])cc1)c1ccccn1"
experimentalreadout = "Potency"
measured = "8.91 µM (active)"

[[record]]
compoundstructure = "Cc1ccc(-c2nc3ccccc3[nH]2)cc1N"
experimentalreadout = "Potency"
measured = "6.31 µM (active)"

[[record]]
compoundstructure = "COc1ccc(C(=O)Nc2ccc3c(c2)OCO3)cc1OC"
experimentalreadout = "Potency"
measured = "12.6 µM (active)"

[[record]]
compoundstructure = "Cc1cc(C(=O)N/N=C/c2ccc(N3CCOCC3)cc2)c(C)o1"
experimentalreadout = "Potency"
measured = "11.2 µM (active)"

[[record]]
compoundstructure = "Nc1ncc(-c2cc3ccccc3oc2=O)s1"
experimentalreadout = "Potency"
measured = "11.2 µM (active)"

[[record]]
compoundstructure = "COc1ccc(C(=O)Nc2ccccc2C(=O)N/N=C/c2ccc(O)c(OC)c2)cc1"
experimentalreadout = "Potency"
measured = "1 µM (active)"

[[record]]
compoundstructure = "COc1ccc(C2=Nc3cc(C)ccc3OC2)cc1"
experimentalreadout = "Potency"
measured = "8.91 µM (active)"

[[record]]
compoundstructure = "O=C(Nc1nnc(C2CC2)s1)c1ccccn1"
experimentalreadout = "Potency"
measured = "10 µM (active)"

[[record]]
compoundstructure = "CC(=NCc1ccco1)c1c(C(F)(F)F)[nH]n(-c2nc3ccccc3s2)c1=O"
experimentalreadout = "Potency"
measured = "8.91 µM (active)"

[[record]]
compoundstructure = "COc1ccccc1C(=O)Nc1ccc(NC(=O)c2ccco2)c(C)c1"
experimentalreadout = "Potency"
measured = "10 µM (active)"

[[record]]
compoundstructure = "COC(=O)c1ccc(NCC(=O)c2ccccc2)cc1"
experimentalreadout = "Potency"
measured = "10 µM (active)"

[[record]]
compoundstructure = "COc1ccccc1N=Cc1c(O)c2ccccc2oc1=O"
experimentalreadout = "Potency"
measured = "14.1 µM (active)"

[[record]]
compoundstructure = "Cn1c(-c2ccco2)nc2cc3ccccc3cc21"
experimentalreadout = "Potency"
measured = "12.6 µM (active)"

[[record]]
compoundstructure = "Cc1ccc(-c2cn3cc(C)ccc3n2)cc1"
experimentalreadout = "Potency"
measured = "11.2 µM (active)"

[[record]]
compoundstructure = "c1ccc(-c2noc(-c3cccs3)n2)nc1"
experimentalreadout = "Potency"
measured = "12.6 µM (active)"

[[record]]
compoundstructure = "c1ccc2[nH]c(-c3nc4ccccc4[nH]3)nc2c1"
experimentalreadout = "Potency"
measured = "11.2 µM (active)"

[[record]]
compoundstructure = "Cc1ccnc(NC(=O)c2ccoc2C)c1"
experimentalreadout = "Potency"
measured = "6.31 µM (active)"

[[record]]
compoundstructure = "C=CCn1c(C)cc(C2=NNC(=NCC)SC2)c1C"
experimentalreadout = "Potency"
measured = "7.94 µM (active)"

[[record]]
compoundstructure = "COc1ccc(C(=O)Nc2ccccc2C(=O)N/N=C/c2ccccc2OC)cc1"
experimentalreadout = "Potency"
measured = "6.31 µM (active)"

[[record]]
compoundstructure = "Cc1ccsc1/C=C1\\SC(N2CCOCC2)=NC1=O"
experimentalreadout = "Potency"
measured = "12.6 µM (active)"

